The origin of these recorded values is PubChem BioAssay AID330.

Reported T/C values follow for various compounds
Tested on: P388 leukemia ip, CD2F1 mice, survival T/C
Assay: NCI In Vivo Anticancer Drug Screen. Data for tumor model P388 Leukemia (intraperitoneal) in CD2F1 (CDF1) mice
Settings: endpoint: median survival time; dose: 200.0 mg/kg/injection; schedule: Q01DX001 (ip); vehicle: saline; higher = longer survival
Inconclusive results and toxic doses are left out.

smiles.record | T/C
COC(=O)C1=C/C=C\CN(C(c2ccccc2)c2ccccc2)/C=C\1C(=O)OC | 100 % of control
CSc1nccn[n+]1C | 111 % of control
C1CCCN(N2CCOCC2)CC1 | 98 % of control

// moving on: another record for T/C
Query: T/C; subject: `CCCCNC(=O)N(CC)c1ccccc1`
113 % of control
